- System: A498 renal
- Test name: NCI-60 one-dose screen, 48 h
- Test settings: 10 µM unless noted
- Description: Growth inhibition of the A498 human tumor cell line is measured as a screen for anti-cancer activity. Cells are grown in 96 well plates and exposed to the test compound for 48 hours. Compounds are tested at a single concentration, which is 10^-5 M for most compounds. The reported endpoint is percent growth (GI% or GIPRCNT), where numbers from 0 - 100% represent growth inhibition, and numbers from -100% - 0 represent cell death. For example, a value of 40 represents 60% growth inhibition. […]
This is part of a sample that, as a whole, favours compounds with a hit. Of some 83,000 tested, about 20% had one in any assay. Calls of active or inactive are those of the source. How the source made its calls: active means growth percent below 10; inactive means the rest.
Outcome codes: active, inactive

> print(dat)
                            chemical.string         tgt  assigned.category
1                      CCCc1cc2c(cc1Br)OCO2  A498 renal           inactive
2                      Cc1ccc(O)c(C(=O)O)c1  A498 renal           inactive
3  COc1ccc(-c2nc(N/N=C/c3cccc(O)c3)nc(N3CCOCC3)c2C#N)cc1  A498 renal           inactive
4  O=S(=O)(NCCNc1nccc(-c2c(-c3ccc(F)c(O)c3)nc3sccn23)n1)c1ccccc1  A498 renal           inactive
5  COc1cc(-c2cc(=O)oc3cc(O)ccc23)cc(OC)c1OC  A498 renal           inactive
6  Clc1nc(Cl)c2ncn(CCOCCn3cnc4c(Cl)nc(Cl)nc43)c2n1  A498 renal             active
7  c1ccc(-c2nnc(Nc3ccc4c(c3)OCCO4)o2)c(NCc2ccncc2)c1  A498 renal           inactive
8                   CCCCCCCCCCN=C(N)N=C(N)N  A498 renal           inactive
9  O=C(CN1CCOCC1)Nc1ccc2ncnc(Nc3ccc(Oc4cccc(F)c4)c(Cl)c3)c2c1  A498 renal           inactive
